- Test system: colon cancer SW480
- protocolDetails: MTT cytotoxicity, colon cancer SW480
- Format: cell-based
- conditionsUsed: colon cancer SW480, MTT, n = 6; read-out: cytotoxicity IC50
Field 'label' (enum: 1.0 / 0.0). Set to 1.0 when IC50 is strictly under 20 µM; else 0.0.

- compound: "CCN(CC)CCCCC1C(=O)[O][Pt]2([NH]CCCC[NH]2)[O]C1=O.O=P(O)(O)O"
  assignedClass: 0.0
- compound: "CCN(CC)CCCCC1C(=O)[O][Pt]2([NH]C3CCCC3[NH]2)[O]C1=O.O=P(O)(O)O (racemic)"
  assignedClass: 1.0
- compound: "CCN(CC)CCCCC1C(=O)[O][Pt]2([NH]C3CCC3[NH]2)[O]C1=O.O=C(O)CCC(=O)O (racemic)"
  assignedClass: 1.0
- compound: "N.N.O=C([O-])C1(C(=O)[O-])CCC1.[Pt+2] [Carboplatin, reference compound]"
  assignedClass: 0.0
- compound: "CCN(CC)CCCCC1C(=O)[O][Pt]2([NH]CC[NH]2)[O]C1=O.Cc1ccc(S(=O)(=O)O)cc1"
  assignedClass: 1.0
- compound: "CCN(CC)CCCCC1C(=O)[O][Pt]2([NH]CCC[NH]2)[O]C1=O.O=P(O)(O)O"
  assignedClass: 1.0

---

- Test system: Lung cancer H292
- protocolDetails: MTT cytotoxicity, lung cancer H292
- Type: cell-based
- conditionsUsed: Lung cancer H292, MTT, n = 6; read-out: cytotoxicity IC50

- compound: "CCN(CC)CCCCC1C(=O)[O][Pt]2([NH]C3CCCCC3[NH]2)[O]C1=O.Cc1ccc(S(=O)(=O)O)cc1 (racemic)"
  unitsOfMeasure: "µM"
  IC50: 6
- compound: "CCN(CC)CCCCC1C(=O)[O][Pt]2([NH]CCCC[NH]2)[O]C1=O.O=P(O)(O)O"
  unitsOfMeasure: "µM"
  IC50: 6
- compound: "CCN(CC)CCCCC1C(=O)[O][Pt]2([NH]CC(CO)(CO)C[NH]2)[O]C1=O.O=P(O)(O)O"
  unitsOfMeasure: "µM"
  IC50: 12
- compound: "CCN(CC)CCCCC1C(=O)[O][Pt]2([NH]CC[NH]2)[O]C1=O.Cc1ccc(S(=O)(=O)O)cc1"
  unitsOfMeasure: "µM"
  IC50: 4
- compound: "N.N.O=C([O-])C1(C(=O)[O-])CCC1.[Pt+2] [Carboplatin, reference compound]"
  unitsOfMeasure: "µM"
  IC50: 55
- compound: "C[N+](C)(C)CCCCC1C(=O)[O][Pt][O]C1=O.Cc1ccc(S(=O)(=O)[O-])cc1.N[C@@H]1CCCC[C@H]1N"
  unitsOfMeasure: "µM"
  IC50: 7

---

Here the recorded LD50 is given for each entry.
- System: normal mice
- protocolDetails: in vivo
- conditionsUsed: Table 1, formula I compounds; method of test example 1
measureName: LD50 (mmol/kg)

- smilesEntry: "CCCN.CCN(CC)CCCCC1C(=O)[O][Pt][O]C1=O.NC1CC=NC1"
  measurementTarget: "normal mice"
  observedResult: 0.804
- smilesEntry: "CN(C)CCCCC1C(=O)[O][Pt][O]C1=O.NCC1CN1"
  measurementTarget: "normal mice"
  observedResult: 0.823
- smilesEntry: "CN(C)CCCCC1C(=O)[O][Pt][O]C1=O.NCC1CCN1"
  measurementTarget: "normal mice"
  observedResult: 0.815
- smilesEntry: "CN(C)CCCCC1C(=O)[O][Pt][O]C1=O.NCC1CCCCN1"
  measurementTarget: "normal mice"
  observedResult: 0.817
